Molecular target: aromatase (Homo sapiens, UniProt P11511)
Construct: aromatase preparation, usually 50-800 »g of microsomal protein per ml of assay buffer
Sequence (P11511 1-503): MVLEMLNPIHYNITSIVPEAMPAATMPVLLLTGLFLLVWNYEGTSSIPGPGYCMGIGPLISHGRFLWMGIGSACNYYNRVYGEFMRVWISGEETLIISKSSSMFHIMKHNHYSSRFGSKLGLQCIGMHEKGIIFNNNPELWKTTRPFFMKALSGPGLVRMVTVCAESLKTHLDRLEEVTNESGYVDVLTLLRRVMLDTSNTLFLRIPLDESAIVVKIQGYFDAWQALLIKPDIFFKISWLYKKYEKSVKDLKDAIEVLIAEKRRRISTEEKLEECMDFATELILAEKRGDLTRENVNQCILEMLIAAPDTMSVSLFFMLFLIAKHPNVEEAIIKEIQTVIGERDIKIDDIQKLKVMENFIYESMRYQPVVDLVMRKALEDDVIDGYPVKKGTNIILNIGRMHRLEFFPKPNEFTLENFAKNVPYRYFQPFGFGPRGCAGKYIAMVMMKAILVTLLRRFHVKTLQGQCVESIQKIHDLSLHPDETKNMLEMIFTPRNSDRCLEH
Assay: time-dependent aromatase inhibition assay (preincubation of inhibitor with enzyme, Kitz-Wilson analysis)
ASSAY_READOUT: log10 Ki (log10 of the value in µM)
Parameter value (number): base-10 log of Ki in µM.

Sample answers from the record:
| COMPOUND | log10 Ki |
| --- | --- |
| C[C@]12CC[C@H]3[C@@H](CCC4=CC(=O)CC[C@@]43C(O)CI)[C@@H]1CCC2=O (stereo partly drawn) [HOCHCH₂I (R):(S)::9:1] | -1.96 |
| C[C@]12CC[C@H]3[C@@H](CCC4=CC(=O)CC[C@@]43C(=O)CBr)[C@@H]1CCC2=O [O=CCH₂Br, 10-(2-Bromoacetyl)-estr-4-ene-3,17-dione] | -0.72 |
| C[C@]12CC[C@H]3[C@@H](CCC4=CC(=O)CC[C@@]43C(O)CBr)[C@@H]1CCC2=O (stereo partly drawn) [HOCHCH₂Br (S):(R)::9:1] | 0.05 |
| C[C@]12CC[C@H]3[C@@H](CCC4=CC(=O)CC[C@@]43C(O)CBr)[C@@H]1CCC2=O (single isomer, unassigned; diastereomer 10) [HOCHCH₂Br pure (R) diastereomer] | -1.59 |

From here, focus on the item given below.
Query: Value lookup for log10 Ki; key = C[C@]12CC[C@H]3[C@@H](CCC4=CC(=O)CC[C@@]43C(O)CCl)[C@@H]1CCC2=O (stereo partly drawn) [HOCHCH₂Cl (R):(S)::9:1]
Reply: -1.20

---

Molecular target: aromatase (Homo sapiens)
Construct: aromatase preparation, usually 50-800 »g of microsomal protein per ml of assay buffer; from tissue; host or cells: microsomes
Sequence (P11511 1-503): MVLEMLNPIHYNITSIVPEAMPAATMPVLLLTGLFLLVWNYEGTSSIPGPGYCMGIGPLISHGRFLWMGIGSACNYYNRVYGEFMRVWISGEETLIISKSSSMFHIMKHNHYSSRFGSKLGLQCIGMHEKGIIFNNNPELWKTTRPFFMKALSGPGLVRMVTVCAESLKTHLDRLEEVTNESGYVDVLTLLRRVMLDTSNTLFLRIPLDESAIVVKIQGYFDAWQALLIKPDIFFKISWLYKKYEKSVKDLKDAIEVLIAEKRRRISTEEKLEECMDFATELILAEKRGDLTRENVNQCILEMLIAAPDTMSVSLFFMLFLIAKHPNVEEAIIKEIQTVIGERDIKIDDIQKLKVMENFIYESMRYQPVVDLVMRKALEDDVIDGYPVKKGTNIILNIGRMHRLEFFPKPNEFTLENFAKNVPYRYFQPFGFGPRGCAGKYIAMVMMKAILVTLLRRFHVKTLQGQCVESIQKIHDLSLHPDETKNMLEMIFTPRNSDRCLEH
Assay: time-dependent aromatase inhibition assay (preincubation of inhibitor with enzyme, Kitz-Wilson analysis)
Format: biochemical
Conditions: half-time of inactivation at infinite inhibitor concentration; Kitz-Wilson plots; time-dependent assay
Classify by measured τ50: y if it is equal to or exceeds 5 min, n if it is smaller.

Query: Has C[C@]12CC[C@H]3[C@@H](CCC4=CC(=O)CC[C@@]43C(O)CI)[C@@H]1CCC2=O (stereo partly drawn) [HOCHCH₂I (R):(S)::9:1] a recorded τ50 greater than or equal to 5 min?
Reply: n

Query: Has C[C@]12CC[C@H]3[C@@H](CCC4=CC(=O)CC[C@@]43C(O)CBr)[C@@H]1CCC2=O (single isomer, unassigned; diastereomer 10) [HOCHCH₂Br pure (R) diastereomer] a recorded τ50 greater than or equal to 5 min?
Reply: n

Query: Has C[C@]12CC[C@H]3[C@@H](CCC4=CC(=O)CC[C@@]43C(O)CBr)[C@@H]1CCC2=O (stereo partly drawn) [HOCHCH₂Br (S):(R)::9:1] a recorded τ50 greater than or equal to 5 min?
Reply: y

Query: Has C[C@]12CC[C@H]3[C@@H](CCC4=CC(=O)CC[C@@]43C(=O)CBr)[C@@H]1CCC2=O a recorded τ50 greater than or equal to 5 min?
Reply: y

Query: Has C[C@]12CC[C@H]3[C@@H](CCC4=CC(=O)CC[C@@]43C(O)CCl)[C@@H]1CCC2=O (stereo partly drawn) [HOCHCH₂Cl (R):(S)::9:1] a recorded τ50 greater than or equal to 5 min?
Reply: n
